- STUDY_TARGET: T1, Cynomolgus monkey CD98 ECD with C-terminal His-tag (SEQ ID NO: 127) (cynomolgus monkey, UniProt P08195 105-529 (human entry))
- T1 construct: The entry includes the linker and the polyhistidine tag; also called cyCD98 ECD
- T1 chain: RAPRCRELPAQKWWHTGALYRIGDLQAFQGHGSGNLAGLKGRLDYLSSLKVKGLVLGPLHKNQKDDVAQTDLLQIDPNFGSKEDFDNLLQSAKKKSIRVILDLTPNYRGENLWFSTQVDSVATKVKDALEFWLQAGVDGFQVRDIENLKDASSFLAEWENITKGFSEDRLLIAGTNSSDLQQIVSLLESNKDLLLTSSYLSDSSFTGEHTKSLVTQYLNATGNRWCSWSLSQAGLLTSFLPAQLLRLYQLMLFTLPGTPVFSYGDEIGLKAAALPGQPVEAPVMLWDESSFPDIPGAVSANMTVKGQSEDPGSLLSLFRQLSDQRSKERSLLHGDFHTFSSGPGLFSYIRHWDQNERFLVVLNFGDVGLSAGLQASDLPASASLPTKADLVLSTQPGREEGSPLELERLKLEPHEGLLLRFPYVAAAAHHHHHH
- PROCEDURE_SUMMARY: SPR (Biacore), recombinant CD98 ECD
Provide the recorded log10(koff) for the entries that follow.
Record value = log10 of koff given in s⁻¹.

huAb106 (antibody, V domains shown, Framework re-engineered humanized clone (parent huAb15v1), expressed as full-length IgG) VH: EVQLVQSGAEVKKPGASVKVSCKASGFTFSDYTMAWVRQAPGQGLEWVATIIYSGRGTYYRDAVKGRFTITRDNSTSTLYLELSSLRSEDTAVYYCARQSDHTYYYWGYFDYWGQGTMVTVSS VL: DIVMTQTPLSLPVTPGEPASINCKSSQSLLFSGNQKNYLAWYLQKPGQSPQLLIYWASTRQSGVPDRFSGSGSGTDFTLKISRVEAEDVGIYYCQQYYDVPYTFGQGTKLEIK
-4.02
huAb104 (antibody, human IgG1, kappa, L234A L235A, V domains shown, Framework re-engineered humanized clone (parent huAb3v2); also called CL-huAb104) VH: EVQLVESGGGLVQPGGSLRLSCATSGFTFIDYYMSWVRQAPGKGLEWLGFIRNKAYGYTTEYSASVKGRFTISRDNSKSILYLQMNSLKTEDTAVYYCTRDRPAWFVYWGQGTLVTVSS VL: DIVMTQTPLSLPVTPGEPASISCKSSQSLLYSSNQKNYLAWYLQKPGQSPQLLIYWASTRESGVPDRFSGSGSGTDFTLKISRVEAEDVGVYYCQQYYSYPYTFGGGTKVEIKR
-3.32
huAb107 (antibody, V domains shown, Framework re-engineered humanized clone (parent huAb15v2), expressed as full-length IgG) VH: EVQLVESGGGLVQPGGSLRLSCAASGFTFSDYTMAWVRQAPGKGLEWVATIIYSGRGTYYRDAVKGRFTISRDNAKNTLYLQMNSLRAEDTAVYYCARQSDDTYYYWGYFDYWGQGTMVTVSS VL: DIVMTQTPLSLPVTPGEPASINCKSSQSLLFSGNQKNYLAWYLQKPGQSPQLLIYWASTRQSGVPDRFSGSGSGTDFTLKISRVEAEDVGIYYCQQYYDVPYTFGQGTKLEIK
-4.06
huAb103 (antibody, V domains shown, Framework re-engineered humanized clone (parent huAb3v2), expressed as full-length IgG; also called haAb103) VH: EVQLVESGGGLVKPGGSLRLSCATSGFTFIDYYMSWVRQAPGKGLEWLGFIRNKAYGYTTEYSASVKGRFTISRDNSKSILYLQMNSLKTEDTAVYYCTRDRPAWFVYWGQGTLVTVSS VL: DIVMTQTPLSLPVTPGEPASISCKSSQSLLYSSNQKNYLAWYLQKPGQSPQLLIYWASTRESGVPDRFSGSGSGTDFTLKISRVEAEDVGVYYCQQYYSYPYTFGGGTKVEIK
-3.36
huAb101 (antibody, V domains shown, Framework re-engineered humanized clone (parent huAb3v1), expressed as full-length IgG) VH: EVQLVESGGGLVKPGGSLRLSCATSGFTFIDYYMSWVRQAPGKGLEWLGFIRNKANRYTTEYSASVKGRFTISRDNSKSILYLQMNSLKTEDTAVYYCTRDRPAWFVYWGQGTLVTVSS VL: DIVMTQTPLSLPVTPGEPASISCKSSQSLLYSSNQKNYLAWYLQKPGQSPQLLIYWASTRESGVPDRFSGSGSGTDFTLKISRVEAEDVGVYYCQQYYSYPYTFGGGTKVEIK
-3.17
huAb108 (antibody, human IgG1, kappa, L234A L235A, V domains shown, Framework re-engineered humanized clone (parent huAb15v2); also called CL-huAb108) VH: EVQLVQSGAEVKKPGASVKVSCKASGFTFSDYTMAWVRQAPGQGLEWVATIIYSGRGTYYRDAVKGRFTITRDNSTSTLYLELSSLRSEDTAVYYCARQSDDTYYYWGYFDYWGQGTMVTVSS VL: DIVMTQTPLSLPVTPGEPASINCKSSQSLLFSGNQKNYLAWYLQKPGQSPQLLIYWASTRQSGVPDRFSGSGSGTDFTLKISRVEAEDVGIYYCQQYYDVPYTFGQGTKLEIKR
-3.85
huAb102 (antibody, human IgG1, kappa, L234A L235A, V domains shown, Framework re-engineered humanized clone (parent huAb3v1); also called CL-huAb102) VH: EVQLVESGGGLVQPGGSLRLSCATSGFTFIDYYMSWVRQAPGKGLEWLGFIRNKANRYTTEYSASVKGRFTISRDNSKSILYLQMNSLKTEDTAVYYCTRDRPAWFVYWGQGTLVTVSS VL: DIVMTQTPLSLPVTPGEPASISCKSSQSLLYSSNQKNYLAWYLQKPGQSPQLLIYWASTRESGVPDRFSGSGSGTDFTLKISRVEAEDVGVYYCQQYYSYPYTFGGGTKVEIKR
-3.17
huAb109 (antibody, V domains shown, Framework re-engineered humanized clone (parent huAb15v6), expressed as full-length IgG) VH: EVQLVESGGGLVQPGGSLRLSCAASGFTFSDYTMAWVRQAPGKGLEWVATIIYDARGTYYRDAVKGRFTISRDNAKNTLYLQMNSLRAEDTAVYYCARQSDDTYYYWGYFDYWGQGTMVTVSS VL: DIVMTQTPLSLPVTPGEPASINCKSSQSLLFSGNQKNYLAWYLQKPGQSPQLLIYWASTRQSGVPDRFSGSGSGTDFTLKISRVEAEDVGIYYCQQYYSSPYTFGQGTKLEIK
-3.51
huAb105 (antibody, V domains shown, Framework re-engineered humanized clone (parent huAb15v1), expressed as full-length IgG) VH: EVQLVESGGGLVQPGGSLRLSCAASGFTFSDYTMAWVRQAPGKGLEWVATIIYSGRGTYYRDAVKGRFTISRDNAKNTLYLQMNSLRAEDTAVYYCARQSDHTYYYWGYFDYWGQGTMVTVSS VL: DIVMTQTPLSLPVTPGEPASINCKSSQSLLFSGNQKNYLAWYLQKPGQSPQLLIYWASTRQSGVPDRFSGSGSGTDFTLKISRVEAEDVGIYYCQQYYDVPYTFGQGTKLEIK
-4.28

Consider the record given below.
// log10(koff) value for huAb110 (antibody, human IgG1, kappa, L234A L235A, V domains shown, Framework re-engineered humanized clone (parent huAb15v6); also called CL-huAb110) VH: EVQLVQSGAEVKKPGASVKVSCKASGFTFSDYTMAWVRQAPGQGLEWVATIIYDARGTYYRDAVKGRFTITRDNSTSTLYLELSSLRSEDTAVYYCARQSDDTYYYWGYFDYWGQGTMVTVSS VL: DIVMTQTPLSLPVTPGEPASINCKSSQSLLFSGNQKNYLAWYLQKPGQSPQLLIYWASTRQSGVPDRFSGSGSGTDFTLKISRVEAEDVGIYYCQQYYSSPYTFGQGTKLEIKR : -3.29

Measured values drawn from patent US20200147235A1 for this set.
